- ASSAY TARGET: HLA-A*02:01 (Homo sapiens, UniProt P04439, D140Y/D185E/D98H/E176V/E277Q/G131W/G231S/I119V/I121R/I166T/I218V/L300P/L318F/N151K/N90K/P208A/P217A/Q86G/Q94H/R138H/R169H/T345S)
- MEASUREMENT PROTOCOL: MHC binding assay (UV-ligand exchange, beta2m ELISA)
- RECORDED CONDITIONS: binding to HLA-A*02:01, UV-ligand exchange
- Excerpt: Candidate peptides for T cell based therapies according to the present invention were further tested for their MHC binding capacity (affinity). The individual peptide-MHC complexes were produced by UV-ligand exchange, where a UV-sensitive peptide is cleaved upon UV-irradiation, and exchanged with the peptide of interest as analyzed. Only peptide candidates that can effectively bind and stabilize the peptide-receptive MHC molecules prevent dissociation of the MHC complexes. […]
ENDPOINT NAME: Peptide exchange (MHC class I binding score, peptide exchange yield)

201 (YLNISQVNV; listed as Homo sapiens) [compound 201] :: “+++” (≥50 = +++)
250 (VLTNVGAAL; listed as Homo sapiens) [compound 250] :: “+++” (≥50 = +++)
149 (ILNPVTTKL; listed as Homo sapiens) [compound 149] :: “+++” (≥50 = +++)
